Consider the following molecules; for each one, report its IC50.
# Tested On: human FSH receptor (Homo sapiens)
# Sequence (P23945 18-695): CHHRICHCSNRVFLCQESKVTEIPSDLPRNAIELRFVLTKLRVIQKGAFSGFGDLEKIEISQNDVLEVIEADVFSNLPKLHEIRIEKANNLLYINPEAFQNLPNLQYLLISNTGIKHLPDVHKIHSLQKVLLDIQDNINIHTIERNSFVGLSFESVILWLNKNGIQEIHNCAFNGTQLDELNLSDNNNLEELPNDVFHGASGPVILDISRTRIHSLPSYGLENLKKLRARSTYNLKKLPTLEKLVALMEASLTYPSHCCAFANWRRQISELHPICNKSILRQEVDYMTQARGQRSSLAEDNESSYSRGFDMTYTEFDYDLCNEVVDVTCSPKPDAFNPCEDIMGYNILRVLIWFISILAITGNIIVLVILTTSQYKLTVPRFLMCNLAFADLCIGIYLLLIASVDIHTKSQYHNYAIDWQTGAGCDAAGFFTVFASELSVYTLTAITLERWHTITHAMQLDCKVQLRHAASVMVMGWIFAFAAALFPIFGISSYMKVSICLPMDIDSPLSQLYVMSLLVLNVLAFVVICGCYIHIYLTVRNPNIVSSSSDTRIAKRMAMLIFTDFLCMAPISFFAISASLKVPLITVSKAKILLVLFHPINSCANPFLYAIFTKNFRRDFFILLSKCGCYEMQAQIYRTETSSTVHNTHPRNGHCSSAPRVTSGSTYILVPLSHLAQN
# Test: HTRF assay for measuring cAMP in cells (FSH antagonism)
# Measurement Context: hFSHR clone 16 cells (CHO cells stably transfected with the human FSH receptor); in the presence of 1e-9 mol/l hFSH; 37° C. for 2 h; read-out: IC50, FSH antagonistic effect in the HTRF assay
Express the result in nM but write the number alone.

Find the measured IC50: item CNC(=O)c1cc(F)cc(-c2ccc(OC(C)C)c(C(=O)NC(CC#N)Cc3c[nH]c4ccccc34)c2)c1 (stereo not shown) [Example 1] , target or system human FSH receptor (Homo sapiens).
3500

Find the measured IC50: item CNC(=O)c1cccc(C#Cc2ccc(OC(C)C)c(C(=O)NC(CC#N)Cc3c[nH]c4ccccc34)c2)c1 (stereo not shown) [Example 10] , target or system human FSH receptor (Homo sapiens).
3500

Find the measured IC50: item CNC(=O)c1ccccc1C#Cc1ccc(OC(C)C)c(C(=O)NC(CC#N)Cc2c[nH]c3ccccc23)c1 (stereo not shown) [Example 11] , target or system human FSH receptor (Homo sapiens).
10000

Find the measured IC50: item CNC(=O)c1ccc(C#Cc2ccc(OC(C)C)c(C(=O)NC(CC#N)Cc3c[nH]c4ccccc34)c2)cc1 (stereo not shown) [Example 9] , target or system human FSH receptor (Homo sapiens).
750

Find the measured IC50: item CC(C)Oc1ccc(C#Cc2ccc(C(N)=O)cc2)cc1C(=O)NC(CC#N)Cc1c[nH]c2ccccc12 (stereo not shown) [Example 8] , target or system human FSH receptor (Homo sapiens).
200

Find the measured IC50: item Cc1cc(C(N)=O)ccc1C#Cc1ccc(OC(F)(F)F)c(C(=O)NC(CC#N)Cc2c[nH]c3ccccc23)c1 (stereo not shown) [Example 4] , target or system human FSH receptor (Homo sapiens).
250

Find the measured IC50: item CC(C)Oc1ccc(-c2ccc(C(=O)N3CCOCC3)c(Cl)c2)cc1C(=O)NC(CC#N)Cc1c[nH]c2ccccc12 (stereo not shown) [Example 6] , target or system human FSH receptor (Homo sapiens).
80
